# SYSTEM: Glutaminase kidney isoform, mitochondrial (Homo sapiens) (UniProt O94925)
# Sequence (O94925 whole entry, canonical isoform): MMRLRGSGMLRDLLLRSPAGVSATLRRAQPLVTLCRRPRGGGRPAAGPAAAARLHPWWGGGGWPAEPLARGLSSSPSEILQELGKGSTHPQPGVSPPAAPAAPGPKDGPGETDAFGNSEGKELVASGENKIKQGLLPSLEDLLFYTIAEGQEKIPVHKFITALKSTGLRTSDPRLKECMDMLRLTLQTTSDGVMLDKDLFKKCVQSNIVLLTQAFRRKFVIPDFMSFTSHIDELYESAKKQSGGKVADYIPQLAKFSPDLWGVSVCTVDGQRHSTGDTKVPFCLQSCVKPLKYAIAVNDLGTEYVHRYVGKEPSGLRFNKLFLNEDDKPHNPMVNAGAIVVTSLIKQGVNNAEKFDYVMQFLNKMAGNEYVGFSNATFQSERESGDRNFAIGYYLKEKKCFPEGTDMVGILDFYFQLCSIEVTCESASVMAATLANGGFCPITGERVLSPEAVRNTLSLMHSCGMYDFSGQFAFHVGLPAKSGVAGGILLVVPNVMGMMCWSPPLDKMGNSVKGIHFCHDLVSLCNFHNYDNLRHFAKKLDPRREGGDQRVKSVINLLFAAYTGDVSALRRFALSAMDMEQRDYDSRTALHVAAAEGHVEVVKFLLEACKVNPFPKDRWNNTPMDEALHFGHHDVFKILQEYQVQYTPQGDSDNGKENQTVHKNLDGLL
# PROTOCOL TEXT: Inhibition of human GLS1 at 10 uM relative to control
ENDPOINT NAME: inhibition

{"MOLECULE": "CC(=O)O[C@H]1C=C([C@H](C)[C@H]2CC(C)=C(C)C(=O)O2)[C@@]2(C)CC[C@H]3[C@@H](C[C@H]4O[C@]45[C@@H](OC(=O)CCCC(=O)Nc4nncs4)C=CC(=O)[C@]35C)[C@@]12O", "SYSTEM": "Glutaminase kidney isoform, mitochondrial (Homo sapiens) (UniProt O94925)", "ENDPOINT NAME": "inhibition", "ASSAY VALUE": "< 50%"}

Hey, can you go through the list below and give me inhibition for every item?
1. CC(=O)O[C@H]1C=C([C@H](C)[C@H]2CC(C)=C(C)C(=O)O2)[C@@]2(C)CC[C@H]3[C@@H](C[C@H]4O[C@]45[C@@H](OC(=O)CCCC(=O)O)C=CC(=O)[C@]35C)[C@@]12O
2. CC(=O)O[C@H]1C=C([C@H](C)[C@H]2CC(C)=C(C)C(=O)O2)[C@@]2(C)CC[C@H]3[C@@H](C[C@H]4O[C@]45[C@@H](OC(=O)CCC(=O)O)C=CC(=O)[C@]35C)[C@@]12O
3. CC(=O)O[C@H]1C=C([C@H](C)[C@H]2CC(C)=C(C)C(=O)O2)[C@@]2(C)CC[C@H]3[C@@H](C[C@H]4O[C@]45[C@@H](OC(=O)CCC(=O)Nc4ccc(N(C)C)cc4)C=CC(=O)[C@]35C)[C@@]12O
4. CC(=O)O[C@H]1C=C([C@H](C)[C@H]2CC(C)=C(C)C(=O)O2)[C@@]2(C)CC[C@H]3[C@@H](C[C@H]4O[C@]45[C@@H](OC(=O)CCC(=O)Nc4nccs4)C=CC(=O)[C@]35C)[C@@]12O
5. CC(=O)O[C@H]1C=C([C@H](C)[C@H]2CC(C)=C(C)C(=O)O2)[C@@]2(C)CC[C@H]3[C@@H](C[C@H]4O[C@]45[C@@H](OC(=O)/C=C/C(=O)Nc4ccc(N(C)C)cc4)C=CC(=O)[C@]35C)[C@@]12O
6. CC(=O)O[C@H]1C=C([C@H](C)[C@H]2CC(C)=C(C)C(=O)O2)[C@@]2(C)CC[C@H]3[C@@H](C[C@H]4O[C@]45[C@@H](O)C=CC(=O)[C@]35C)[C@@]12O

Outgoing:
["< 50%", "< 50%", "< 50%", "< 50%", "< 50%", "41.4%"]

###

# SYSTEM: Glutaminase kidney isoform, mitochondrial (Homo sapiens)
# PROTOCOL TEXT: Inhibition of human GLS1 at 10 uM relative to control
ENDPOINT NAME: inhibition

Please review the entries below; each comes with its answer.
{"COMPOUND": "COc1ccc(NC(=O)CCC(=O)O[C@H]2C=CC(=O)[C@]3(C)[C@H]4CC[C@]5(C)C([C@H](C)[C@H]6CC(C)=C(C)C(=O)O6)=C[C@H](OC(C)=O)[C@]5(O)[C@@H]4C[C@H]4O[C@]243)cc1", "ENDPOINT NAME": "inhibition", "ASSAY VALUE": "< 50%"}
{"COMPOUND": "CC(=O)O[C@H]1C=C([C@H](C)[C@H]2CC(C)=C(C)C(=O)O2)[C@@]2(C)CC[C@H]3[C@@H](C[C@H]4O[C@]45[C@@H](OC(=O)CCCC(=O)Nc4nc6ccccc6s4)C=CC(=O)[C@]35C)[C@@]12O", "ENDPOINT NAME": "inhibition", "ASSAY VALUE": "< 50%"}
{"COMPOUND": "CC(=O)O[C@H]1C=C([C@H](C)[C@H]2CC(C)=C(C)C(=O)O2)[C@@]2(C)CC[C@H]3[C@@H](C[C@H]4O[C@]45[C@@H](OC(=O)CCC(=O)Nc4ccc(F)cc4)C=CC(=O)[C@]35C)[C@@]12O", "ENDPOINT NAME": "inhibition", "ASSAY VALUE": "< 50%"}
{"COMPOUND": "CC(=O)O[C@H]1C=C([C@H](C)[C@H]2CC(C)=C(C)C(=O)O2)[C@@]2(C)CC[C@H]3[C@@H](C[C@H]4O[C@]45[C@@H](OC(=O)CCCC(=O)Nc4ccc(F)cc4)C=CC(=O)[C@]35C)[C@@]12O", "ENDPOINT NAME": "inhibition", "ASSAY VALUE": "< 50%"}
{"COMPOUND": "CC(=O)O[C@H]1C=C([C@H](C)[C@H]2CC(C)=C(C)C(=O)O2)[C@@]2(C)CC[C@H]3[C@@H](C[C@H]4O[C@]45[C@@H](OC(=O)/C=C/C(=O)O)C=CC(=O)[C@]35C)[C@@]12O", "ENDPOINT NAME": "inhibition", "ASSAY VALUE": "< 50%"}

Hey, can you go through the list below and give me inhibition for every item?
1. CC(=O)O[C@H]1C=C([C@H](C)[C@H]2CC(C)=C(C)C(=O)O2)[C@@]2(C)CC[C@H]3[C@@H](C[C@H]4O[C@]45[C@@H](OC(=O)CCCC(=O)Nc4ccc(N6CCOCC6)c(F)c4)C(Nc4ccc(N6CCOCC6)c(F)c4)CC(=O)[C@]35C)[C@@]12O (some centres not stated)
2. COc1ccc(NC(=O)CCCC(=O)O[C@H]2C=CC(=O)[C@]3(C)[C@H]4CC[C@]5(C)C([C@H](C)[C@H]6CC(C)=C(C)C(=O)O6)=C[C@H](OC(C)=O)[C@]5(O)[C@@H]4C[C@H]4O[C@]243)cc1
3. COc1ccc(NC(=O)/C=C/C(=O)O[C@H]2C=CC(=O)[C@]3(C)[C@H]4CC[C@]5(C)C([C@H](C)[C@H]6CC(C)=C(C)C(=O)O6)=C[C@H](OC(C)=O)[C@]5(O)[C@@H]4C[C@H]4O[C@]243)cc1
4. CC(=O)O[C@H]1C=C([C@H](C)[C@H]2CC(C)=C(C)C(=O)O2)[C@@]2(C)CC[C@H]3[C@@H](C[C@H]4O[C@]45[C@@H](OC(=O)/C=C/C(=O)Nc4ccc(N6CCOCC6)c(F)c4)C=CC(=O)[C@]35C)[C@@]12O
5. COc1ccc(NC(=O)CCC(=O)O[C@H]2C(Nc3ccc(OC)cc3)CC(=O)[C@]3(C)[C@H]4CC[C@]5(C)C([C@H](C)[C@H]6CC(C)=C(C)C(=O)O6)=C[C@H](OC(C)=O)[C@]5(O)[C@@H]4C[C@H]4O[C@@]423)cc1 (some centres not stated)
6. CC(=O)O[C@H]1C=C([C@H](C)[C@H]2CC(C)=C(C)C(=O)O2)[C@@]2(C)CC[C@H]3[C@@H](C[C@H]4O[C@]45[C@@H](OC(=O)/C=C/C(=O)Nc4nccs4)C=CC(=O)[C@]35C)[C@@]12O
7. CC(=O)O[C@H]1C=C([C@H](C)[C@H]2CC(C)=C(C)C(=O)O2)[C@@]2(C)CC[C@H]3[C@@H](C[C@H]4O[C@]45[C@@H](OC(=O)CCCC(=O)Nc4ccc(N(C)C)cc4)C=CC(=O)[C@]35C)[C@@]12O

Outgoing:
["< 50%", "56.3%", "51.6%", "52.4%", "< 50%", "< 50%", "51.8%"]
